- Test Method Notes: basal 3T3-L1 adipocyte mitochondrial potential changes, profiling panel, cell-based, JC-1 fluorescence, 3T3-L1 adipocytes, 24 h, 100 nL compound (AID 1168); note: test concentration not given here
- Condition Description: JC-1 mitochondrial fluorescence, higher = more signal, called active from +8 up or from −8 down
Classify by measured z-score: Satisfied if it is equal to or exceeds -0.4, Not satisfied if it is smaller.

Molecule: Cc1ccc(S[C@]2(C(=O)NCCN3CCOCC3)CC(=O)N(C(C)C)[C@@H]2c2ccc(CO)cc2I)cc1
Class: Satisfied
//
Molecule: [N-]=[N+]=Nc1ccccc1C[C@@]1(C(=O)NCC(O)CO)N=C(c2ccc(OCCCO)cc2)O[C@@H]1c1ccccc1N=[N+]=[N-] (stereo not given in full)
Class: Satisfied
//
Molecule: CC[C@H]1C2=C3C(CC[C@H]4C(OCc5ccc(F)cc5C(F)(F)F)OC[C@](C)([C@@H]34)N(C(=O)OC(C)(C)C)C2)C(COC(C)=O)C1COC(C)=O (stereo not given in full)
Class: Not satisfied
//
Molecule: [N-]=[N+]=NCc1ccccc1C[C@@]1(C(N)=O)N=C(c2ccc(OCCCO)cc2)O[C@@H]1c1ccccc1N=[N+]=[N-]
Class: Not satisfied
//
Molecule: COc1ccc([Si](C)(C)[C@H]2[C@H](CC(=O)N(CCO)Cc3ccccc3)O[C@@]3(C(=O)N(Cc4ccc(N5C(=O)c6cccc7cccc5c67)cc4)c4ccccc43)[C@@H]2C)cc1
Class: Satisfied
